- System: SF-268
- protocol notes: NCI tumour cell line growth inhibition, 48 h
The source made the active and inactive calls. Rule as the data show it: active = GI50 up to about 1.1 µM and inactive = higher.
For each record, write down the corresponding GI50.

Previously resolved entries follow.
CN(C)C1C(O)=C(C(=O)NCN2CCCC2)C(=O)C2(O)C(O)=C3C(=O)c4c(O)cccc4C(C)(O)C3CC12 (stereo not given) | > 100 µM (inactive)
O=c1cc(NNc2ccccc2)[nH]c(=S)[nH]1 | 32.7 µM (inactive)
CCOC(=O)N1N=NC2C3OC(C[C@@]3(C#N)OC(C)=O)[C@H]21 (stereo not given in full) | 51.9 µM (inactive)
COc1ccc(C(c2ccccc2C(=O)O)c2ccc(OC)c3ccccc23)c2ccccc12 | > 10 µM (inactive)

Next, consider the following compound.
Note to self: GI50 recorded for S=C(N1CCN(c2cccc(Cl)c2)CC1)N1CCN(c2cccc(Cl)c2)CC1 was 39.9 µM (inactive)

====

- Tested on: TK-10
- protocol notes: NCI tumour cell line growth inhibition, 48 h
Active and inactive are the calls of the source. No stated cut-off is given here; in the data, active = GI50 up to about 1.1 µM and inactive = higher.
// allowed return values: Y for active, N for inactive

Check the results log: what was the call for CCON1CC(C(=O)OC)=C(O)C1=O ? N

====

- Tested on: SK-MEL-5
- protocol notes: NCI tumour cell line growth inhibition, 48 h
The source made the active and inactive calls. Rule as the data show it: active = GI50 up to about 1.1 µM and inactive = higher. *1 amine or outer side, *2 acyl side, *3 side chain or, on linkers, in order; H or OH if unused. Where a SMILES comes first, the peptide text is derived from it. [ ]: non-standard residue; d: D form. The star is where a group is joined. ξ: configuration not given here. X53 = CC(C)C[C@H](N[*:1])C1=N[C@H](C(=O)[*:2])CS1; Ile(3ξ) = CCC(C)[C@H](N)C(=O)O; Allyl(1,1-Me2) = C=CC(C)(C)*
For each record, write down the corresponding GI50.

Cn1c(N=P(c2ccccc2)(c2ccccc2)c2ccccc2)c([N+](=O)[O-])c(=O)n(C)c1=O | 47.4 µM (inactive)
C=CC(C)(C)OC[C@@H]1NC(=O)CNC(=O)[C@@H]2CCCN2C(=O)[C@H](C(C)CC)NC(=O)[C@@H]2CSC(=N2)[C@H](CC(C)C)NC1=O (stereo partly drawn) (cyclo(GS(Allyl(1,1-Me2))[X53][Ile(3ξ)]P)) | 32.6 µM (inactive)

Batch lookup, GI50 per entry.
1. COc1cc(/C=C/c2nc(NC(=S)Nc3ccccc3)nnc2C)cc(OC)c1OC
2. Cn1c(=O)oc2cc(C3CCC(=O)N3Cc3csc(-c4ccccc4)n3)ccc21 (stereo not drawn)
3. c1ccc2c(Cc3[nH]c4ccccc4c3Cc3c[nH]c4ccccc34)c[nH]c2c1
4. Cc1ccc(S(=O)(=O)NC(CCC(=O)NNc2ccccc2)C(=O)NNc2ccccc2)cc1 (stereo not drawn)

1. 14.7 µM (inactive)
2. > 100 µM (inactive)
3. 2.17 µM (inactive)
4. 98.4 µM (inactive)

Batch lookup, GI50 per entry.
1. O=Cc1ccccc1CCn1c(=O)c2cc3c(=O)n(CCc4ccccc4C=O)c(=O)c3cc2c1=O
2. COC1CC(n2cc(F)c(N)nc2=O)OC1CO (stereo not drawn)
3. COc1ccc2c(c1)N(CCC1CCCCN1C)c1ccccc1S2 (stereo not drawn) [OXYRIDAZINE]
4. COc1cc(C(c2c(O)c3ccccc3oc2=O)c2c(O)c3ccccc3oc2=O)cc(Br)c1O
5. Nc1nc2c(c(=O)[n-]1)[n+](CCO)cn2C1OC(CO)C(O)C1O (stereo not drawn)
6. COc1cc2c(cc1OC)CCc1cc(OC)c(OC)cc1CC2

["> 100 µM (inactive)", "> 100 µM (inactive)", "10.8 µM (inactive)", "16.3 µM (inactive)", "> 100 µM (inactive)", "> 100 µM (inactive)"]

====

- System: LOX IMVI
- protocol notes: NCI tumour cell line growth inhibition, 48 h
The source made the active and inactive calls. Rule as the data show it: active = GI50 up to about 1.1 µM and inactive = higher.
measured parameter: GI50

CN(C(=O)Cc1cccc(N=C=S)c1)[C@H]1CCCC[C@@H]1N1CCCC1 | 14.5 µM (inactive)
NC1=CC(C(=O)c2ccncc2)c2nc3ccccc3nc21 (stereo not given) | 22.7 µM (inactive)
CCOC(=O)c1c(CN2CCCC2)n(-c2ccccc2)c2cc(Br)c(OC)cc12 | 13.8 µM (inactive)
O=c1c2ccccc2[nH]c(=S)n1-c1ccc(Br)cc1 | 48.5 µM (inactive)
Clc1ccc(C2C3COc4ccccc4C3=NN2c2ccccc2)cc1 (stereo not given) | 7.19 µM (inactive)

Batch lookup, GI50 per entry.
1. CCOC(=O)C(NC(=O)CC)(N1CCN(c2cc3c(cc2F)c(=O)c(C(=O)O)cn3C2CC2)CC1)C(F)(F)F (stereo not given)
2. COC(OC)[C@@H]1OC[C@H](n2cnc3c(N)ncnc32)[C@H]1O
3. O=[N+]([O-])/C(C(Cl)=C(Cl)Cl)=C(\Nc1ccccc1)n1nnc2ccccc21
4. O=S(=O)(N/N=C/c1ccc(Cl)cc1Cl)c1ccccc1
5. COC1=CCC2=C(CCN(C(=O)C3CC3)C2Cc2ccc(OC)c(O)c2)C1 (stereo not given)

> 100 µM (inactive)
> 100 µM (inactive)
17.4 µM (inactive)
97.9 µM (inactive)
86.7 µM (inactive)

====

- Test system: NCI-H23
- protocol notes: NCI tumour cell line growth inhibition, 48 h
Active and inactive are the calls of the source. Cut-off read from the data, not from the text of the source: active = GI50 up to about 1.1 µM and inactive = higher. Where a SMILES comes first, the peptide text is derived from it. The star is where a group is joined. Cbz = O=C(OCc1ccccc1)*; OBn = c1ccc(CO*)cc1
// allowed return values: Yes = active, No = inactive

Please review the following examples before continuing.
CN(C)/N=C1\C=C2CC[C@H](O[Si](C)(C)C(C)(C)C)[C@@]2(C)CC1 | No
COC(=O)C(CC(C)C)NC(=O)C(CCCNC(=N)N)NC(=O)OCc1ccccc1 (stereo not drawn) (Cbz-Arg-Leu-OMe; configuration not given here) | No
CC(=O)Oc1ccc2c3c1[C@H]1O[C@H]1c1cccc(c1-3)[C@@H]1O[C@H]21 | No
CC(=O)OCC1OC(N2C(c3ccccc3)=CC(c3ccccc3)C(C#N)=C2S)C(OC(C)=O)C(OC(C)=O)C1OC(C)=O (stereo not drawn) | No
Cc1occ2c1C(=O)CC1C2[C@@H](O)CC2C(C)(C)CCC[C@]12C (stereo partly drawn) | No

Check the results log: what was the call for CN(CC(=O)O)CC(=O)O ? No

Check the results log: what was the call for COC(=O)c1cc(C#N)[nH]c1-c1ccc(Br)s1 ? No

Check the results log: what was the call for CCC1C(C(=O)Nc2ccccc2C)=C(C)NC(C)=C1c1ccccc1C (stereo not drawn) ? No

Check the results log: what was the call for CC(C)(C)c1ccc2c(c1)OP1(Oc3c(Cl)cc(Cl)c4cccnc34)(O2)Oc2ccc(C(C)(C)C)cc2O1 ? No

Check the results log: what was the call for COC(=O)C(Cc1ccc(O)cc1)NC(=O)C(CC(=O)OCc1ccccc1)NC(=O)OCc1ccccc1 (stereo not drawn) (Cbz-Asp(OBn)-Tyr-OMe; configuration not given here) ? No

Check the results log: what was the call for Cc1ccc2c(c1)SC(c1cc3c(cc1Br)OCO3)S2 (stereo not drawn) ? No

Check the results log: what was the call for Cc1ccccc1C1CC(c2ccccc2)=NO1 (stereo not drawn) ? No

Check the results log: what was the call for COc1cc(CCc2ccncc2)cc(OC)c1OC ? No

Check the results log: what was the call for CS(=O)(=O)Oc1cccc(/C=N/N=C(\N)NO)c1 ? No

Check the results log: what was the call for CN(C)C1C(O)=C(C(=O)NCN2CCCC2)C(=O)C2(O)C(O)=C3C(=O)c4c(O)cccc4C(C)(O)C3CC12 (stereo not drawn) ? No

Check the results log: what was the call for Cc1cccc(C)c1NC(=O)CCc1nnc2s/c(=C\c3ccc(Cl)cc3)c(=O)n12 ? No

Check the results log: what was the call for COC(=O)C(Cc1ccc2c(c1)OCO2)(NC(=O)c1ccccc1)P(=O)(OC)OC (stereo not drawn) ? No

Check the results log: what was the call for COCC(C#N)NC1CC(OC2CC(O)(C(=O)CO)Cc3c(O)c4c(c(O)c32)C(=O)c2c(OC)cccc2C4=O)OC(C)C1O (stereo not drawn) ? Yes

Check the results log: what was the call for CSC(C1c2ccccc2N(c2ccc(C)cc2)C2=NC(=O)N(C)C(=O)C21Cl)S(=O)(=O)c1ccc(C)cc1 (stereo not drawn) ? No

Check the results log: what was the call for C[C@]12OC[C@H](c3ccccc3)N1C(=O)C1[C@H]2CC12SCCS2 (stereo partly drawn) ? No

Check the results log: what was the call for Cc1ccc(S(=O)(=O)NNC(=O)Nc2ccc(Cl)cc2)cc1 ? No

Check the results log: what was the call for O=[N+]([O-])c1cccc(/C=N/C23CC4CC(CC(C4)C2)C3)c1 ? No

====

For each record, write down the corresponding GI50.
- Tested on: COLO 205
- protocol notes: NCI tumour cell line growth inhibition, 48 h
Active and inactive are the calls of the source. No stated cut-off is given here; in the data, active = GI50 up to about 1.1 µM and inactive = higher.

Previously resolved entries follow.
CC1C=C(OC(=O)c2ccccc2)C(=O)C(n2cc(F)c(=O)[nH]c2=O)O1 (stereo unspecified) | 50.9 µM (inactive)
O=C(O)Cc1ccc([N+](=O)[O-])cc1[N+](=O)[O-] | > 100 µM (inactive)
COc1ccc(NC(C)=O)cc1N1C(=O)/C(=C\c2ccccc2)SC1c1cc(OC)c(OC)c(OC)c1 (stereo unspecified) | 26.6 µM (inactive)
O=C(/C=C\c1ccccc1O)c1ccc(O)cc1O | 28.6 µM (inactive)

Batch lookup, GI50 per entry.
1. Clc1nc(-[n+]2ccc(-c3ccncc3)cc2)nc(Nc2ccccc2)c1Cl
2. O=C1NC(=S)N(c2ccccc2)C1=O
3. Brc1ccccc1/C=N\C12CC3CC(CC(C3)C1)C2
4. C/C(=C\c1ccccc1)C(=O)NCc1ccc(C(=O)NCCc2c[nH]c3ccccc23)cc1

1. > 100 µM (inactive)
2. > 100 µM (inactive)
3. > 100 µM (inactive)
4. 37.6 µM (inactive)

Batch lookup, GI50 per entry.
1. Cc1c(-c2ccccc2)c(=O)oc2ccc(Cl)cc12
2. O=C(/C=C/c1ccccc1)NC1C=Nc2ccc([N+](=O)[O-])cc2NC1=O (stereo unspecified)
3. CCSC1=CC2(O)N(CCc3ccc(OC)c(OC)c3)C(=O)CC2(C(=O)OC)CC1=O (stereo unspecified)
4. O=[N+]([O-])c1ccc2oc(=N/c3ccccc3)/c(=N\c3ccccc3)[nH]c2c1
5. NC(N)NCCCc1cn2c(n1)C1CCCN1C(=O)C2Cc1ccccc1 (stereo unspecified)
6. CCC1C(C(=O)Nc2ccccc2C)=C(C)NC(C)=C1c1ccccc1C (stereo unspecified)

1: > 100 µM (inactive); 2: 29 µM (inactive); 3: 77.6 µM (inactive); 4: > 100 µM (inactive); 5: > 100 µM (inactive); 6: > 77.1 µM (inactive)
